Reported pKd values for the following binders.
- EXPERIMENTAL_SYSTEM: empty disulfide-stabilized HLA-A*02:01 molecule (HLA-A*02:01(Y84C/A139C) heavy chain with beta-2 microglobulin) (human)
- EXPERIMENT_DESCRIPTION: native MS
Formally, pKd is defined as -log10 of the concentration c, with c in mol/L.

Recorded pKd of LVPMVATV [LV8] , please. 7.15

Please look at the following binder next.
Recorded pKd of NLVPMVAT [NT8] , please. 4.52
